test: in vitro; format: cell-based
Consider the following compounds and their measured EC50 readings.
Value Kind: EC50

[[record]]
molecule = "N=C(N)NCCCCN1CCc2ccc(NC(=O)c3cc(C(=O)Nc4ccc5c(c4)CCN(CCCCNC(=N)N)CC5)ncn3)cc2CC1"
result = "> 1000 µg/mL"

[[record]]
molecule = "CN(C)C1CCN(c2ccc(NC(=O)c3ccnc(C(=O)Nc4ccc(N5CCC(N(C)C)CC5)cc4)c3)cc2)CC1"
result = "> 1000 µg/mL"

[[record]]
molecule = "Cn1c(-c2ccc(N3CCN(C(=N)N)CC3)cc2)cnc1-c1ccc(N2CCN(C(=N)N)CC2)cc1"
result = "> 1000 µg/mL"


The values you see were collected from patent US20150094294A1.
